Reported growth inhibition values are given for each entry in this list.
- protocol: NCI Yeast Anticancer Drug Screen. Data for the rad50 strain (AID 155);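 further: 0% = growth of vehicle-only cultures of the same strain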
- testSettings: S. cerevisiae rad50 strain growth inhibition; at 5.0 µM (retest, dose inferred, filed as 0.5); hits give high values
This is part of a sample that, as a whole, favours compounds with a hit. Of some 79,000 tested, about 15% had one in any assay.

molSmiles	growth inhibition / %
CCc1cccc(C)c1NC(=O)C(=O)CC(=O)c1ccccc1Cl	0
Ic1ccc2c(c1)N(c1ccccc1)c1cc(N=c3ccc4nc5ccc(I)cc5n(-c5ccccc5)c-4c3)ccc1N2	-3
COC(=O)c1nnc(C(=O)OC)c2c1[nH]c1ccccc12	4
OCCN1COc2cc3c(cc2C1)OCN(CCO)C3	1
CC/C(=C(/CC)c1ccc([O-])cc1)c1ccc([O-])cc1.CC/C(=C(\CC)c1ccc([O-])cc1)c1ccc([O-])cc1.O=C([CH-]C(=O)c1ccccc1)c1ccccc1.O=C([CH-]C(=O)c1ccccc1)c1ccccc1.O=C([CH-]C(=O)c1ccccc1)c1ccccc1.O=C([CH-]C(=O)c1ccccc1)c1ccccc1.[Ti+4].[Ti+4]	84
COc1ccc(/C=C\Cc2cc3c(cc2OCCO)OCO3)cc1	3
CC1=C(C(=O)Nc2cccc(Cl)c2)C(c2ccccc2F)C(C(=O)Nc2cccc(Cl)c2)=C(C)N1	44
N=C1C(=O)c2ccccc2-c2ccccc21	-93
